# System: U251 human glioblastoma cell line
# Test Method Notes: in vitro FM-HCR assay of MGMT activity (mPlum O^6MeG reporter plasmid)
# Type: cell-based
# Measurement Parameters: DMSO condition; relative to wild-type MGMT in same condition
Measurement Type: MGMT activity (% of WT) DMSO

Molecule	Measurement Type	Result
G156P: MGMT polypeptide with mutation G156P (protein) MDKDCEMKRTTLDSPLGKLELSGCEQGLHEIKLLGKGTSAADAVEVPAPAAVLGGPEPLMQCTAWLNAYFHQPEAIEEFPVPALHHPVFQQESFTRQVLWKLLKVVKFGEVISYQQLAALAGNPKAARAVGGAMRGNPVPILIPCHRVVCSSGAVPNYSGGLAVKEWLLAHEGHRLGKPGLGGSSGLAGAWLKGAGATSGSPPAGRN	MGMT activity (% of WT) DMSO	45.1 % of WT
N137F: MGMT polypeptide with mutation N137F (protein) MDKDCEMKRTTLDSPLGKLELSGCEQGLHEIKLLGKGTSAADAVEVPAPAAVLGGPEPLMQCTAWLNAYFHQPEAIEEFPVPALHHPVFQQESFTRQVLWKLLKVVKFGEVISYQQLAALAGNPKAARAVGGAMRGFPVPILIPCHRVVCSSGAVGNYSGGLAVKEWLLAHEGHRLGKPGLGGSSGLAGAWLKGAGATSGSPPAGRN	MGMT activity (% of WT) DMSO	16.9 % of WT
P138K: MGMT polypeptide with mutation P138K (protein) MDKDCEMKRTTLDSPLGKLELSGCEQGLHEIKLLGKGTSAADAVEVPAPAAVLGGPEPLMQCTAWLNAYFHQPEAIEEFPVPALHHPVFQQESFTRQVLWKLLKVVKFGEVISYQQLAALAGNPKAARAVGGAMRGNKVPILIPCHRVVCSSGAVGNYSGGLAVKEWLLAHEGHRLGKPGLGGSSGLAGAWLKGAGATSGSPPAGRN	MGMT activity (% of WT) DMSO	113.3 % of WT

Cited source for all entries: patent US20250135039A1
